tested on: K24384-001-R-PDC complex spheroids, viability; test: Anticancer human tumor K24384-001-R-PDC patient-derived pancreatic adenocarcinoma cell line growth inhibition [GQUAD]; settings: second compound 0.0316 µM; first compound 0.1 µM; active compounds read low
Listing: viability, T/C of selected compounds
Give the value in % but do not write % after it.

Worked set:
compound="Cc1cccc(N(C)C(=O)C2C(O)CCN2c2nc(C)cc(C(F)(F)F)c2C#N)c1 (stereo unspecified) + CN(C)c1ccc(Nc2c3ccc(NC(=O)CCN4CCCC4)cc3nc3cc(NC(=O)CCN4CCCC4)ccc23)cc1" target_system="K24384-001-R-PDC complex spheroids, viability" assay_value=87.9
compound="O=C(c1cc(Cc2n[nH]c(=O)c3ccccc23)ccc1F)N1CCN(C(=O)C2CC2)CC1 + CN(C)c1ccc(Nc2c3ccc(NC(=O)CCN4CCCC4)cc3nc3cc(NC(=O)CCN4CCCC4)ccc23)cc1" target_system="K24384-001-R-PDC complex spheroids, viability" assay_value=87.2
compound="COc1ccc([C@@H](O)c2cc(-c3ncnc4cc(N5CCOCC5)ccc34)c(F)cc2Cl)nn1 + Cc1cnc(CNC(=O)c2c(=O)c3ccc(N4CCCN(C)CC4)nc3n3c2sc2ccccc23)cn1" target_system="K24384-001-R-PDC complex spheroids, viability" assay_value=81.5

Prompt: Dear colleague, I am looking for the recorded viability, T/C of the following compound: COc1ccc([C@@H](O)c2cc(-c3ncnc4cc(N5CCOCC5)ccc34)c(F)cc2Cl)nn1 + CN(C)c1ccc(Nc2c3ccc(NC(=O)CCN4CCCC4)cc3nc3cc(NC(=O)CCN4CCCC4)ccc23)cc1
Completion: 86.4

Prompt: Dear colleague, I am looking for the recorded viability, T/C of the following compound: Nc1ccn(C2OC(CO)C(O)C2(F)F)c(=O)n1 (stereo unspecified) + CN(C)c1ccc(Nc2c3ccc(NC(=O)CCN4CCCC4)cc3nc3cc(NC(=O)CCN4CCCC4)ccc23)cc1
Completion: 66.5

Prompt: Dear colleague, I am looking for the recorded viability, T/C of the following compound: O=C(c1cc(Cc2n[nH]c(=O)c3ccccc23)ccc1F)N1CCN(C(=O)C2CC2)CC1 + Cc1[nH]c2ccc(F)cc2c1-c1nc2c3cccnc3c3ncccc3c2[nH]1
Completion: 94

Prompt: Dear colleague, I am looking for the recorded viability, T/C of the following compound: COc1cc(C2c3cc4c(cc3C(OC3OC5COC(C)OC5C(O)C3O)C3COC(=O)C23)OCO4)cc(OC)c1O (stereo unspecified) + Cc1[nH]c2ccc(F)cc2c1-c1nc2c3cccnc3c3ncccc3c2[nH]1
Completion: 96

Prompt: Dear colleague, I am looking for the recorded viability, T/C of the following compound: CC(C)n1c(=O)n(C)c2cnc3cc(F)c(-c4ccc(OCCCN5CCCCC5)nc4)cc3c21 + Cc1cnc(CNC(=O)c2c(=O)c3ccc(N4CCCN(C)CC4)nc3n3c2sc2ccccc23)cn1
Completion: 77

====

test system: K24384-001-R-PDC complex spheroids, viability; assay: Anticancer human tumor K24384-001-R-PDC cell line growth inhibition [GQUAD]; details: second compound 0.1 µM; first compound 0.316 µM; active compounds read low;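 further: spheroids exposed to compounds for seven days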
// classify: if (viability, T/C < 80%) MET else NOT MET

Previously resolved entries follow.
compound="Cn1ncnc1[C@H]1c2n[nH]c(=O)c3cc(F)cc(c23)N[C@@H]1c1ccc(F)cc1 + CN(C)c1ccc(Nc2c3ccc(NC(=O)CCN4CCCC4)cc3nc3cc(NC(=O)CCN4CCCC4)ccc23)cc1" group="NOT MET"
compound="O=C(NO)c1cnc(N2CCN(S(=O)(=O)c3ccc4ccccc4c3)CC2)nc1 + Cc1cnc(CNC(=O)c2c(=O)c3ccc(N4CCCN(C)CC4)nc3n3c2sc2ccccc23)cn1" group=MET
compound="CC(C)n1c(=O)n(C)c2cnc3cc(F)c(-c4ccc(OCCCN5CCCCC5)nc4)cc3c21 + Cc1[nH]c2ccc(F)cc2c1-c1nc2c3cccnc3c3ncccc3c2[nH]1" group="NOT MET"

Moving on to the next compound.
Prompt: Consider the compound CCc1c2c(nc3ccc(O)cc13)-c1cc3c(c(=O)n1C2)COC(=O)[C@]3(O)CC + CN(C)c1ccc(Nc2c3ccc(NC(=O)CCN4CCCC4)cc3nc3cc(NC(=O)CCN4CCCC4)ccc23)cc1 . Is its viability, T/C strictly less than 80%?
Completion: MET

====

Test system: K24384-001-R-PDC complex spheroids, viability
Test: Anticancer human tumor K24384-001-R-PDC cell line growth inhibition [GQUAD];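 further: spheroids exposed to compounds for seven days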
Conditions: second compound 0.1 µM; first compound 0.00999 µM; active compounds read low
Text: DNA G-quadruplex Stabilizer Agents in Combinations in Complex Spheroids A high-throughput screen of multi-cell type tumor spheroids was designed to identify active combinations of DNA G-quadruplex stabilizer agents and targeted small molecules. […] Compounds. […] If the clinical Cmax for an agent had not been determined, the highest concentration tested was 10 microM. […]
Recorded Metric: viability, T/C (%)
Give the value in % but do not write % after it.

Worked set:
compound="Cn1ncnc1[C@H]1c2n[nH]c(=O)c3cc(F)cc(c23)N[C@@H]1c1ccc(F)cc1 + CN(C)c1ccc(Nc2c3ccc(NC(=O)CCN4CCCC4)cc3nc3cc(NC(=O)CCN4CCCC4)ccc23)cc1" assay_value=92.2
compound="Cc1[nH]c2ccccc2c1CCNCc1ccc(/C=C/C(=O)NO)cc1 + Cc1[nH]c2ccc(F)cc2c1-c1nc2c3cccnc3c3ncccc3c2[nH]1" assay_value=98.7
compound="Cn1ncnc1[C@H]1c2n[nH]c(=O)c3cc(F)cc(c23)N[C@@H]1c1ccc(F)cc1 + Cc1cnc(CNC(=O)c2c(=O)c3ccc(N4CCCN(C)CC4)nc3n3c2sc2ccccc23)cn1" assay_value=53.6
compound="Cn1ncnc1[C@H]1c2n[nH]c(=O)c3cc(F)cc(c23)N[C@@H]1c1ccc(F)cc1 + Cc1[nH]c2ccc(F)cc2c1-c1nc2c3cccnc3c3ncccc3c2[nH]1" assay_value=90.3

Query compound follows.
Prompt: Dear colleague, I am looking for the recorded viability, T/C of the following compound: CC[C@@]1(O)C(=O)OCc2c1cc1n(c2=O)Cc2cc3c(CN(C)C)c(O)ccc3nc2-1 + CN(C)c1ccc(Nc2c3ccc(NC(=O)CCN4CCCC4)cc3nc3cc(NC(=O)CCN4CCCC4)ccc23)cc1
Completion: 103

====

tested on: K24384-001-R-PDC complex spheroids, viability; assay: Anticancer human tumor K24384-001-R-PDC cell line growth inhibition [GQUAD]; conditions: second compound 0.1 µM; first compound 0.316 µM; active = viability on the fitted dose curve at most 10% of control; inactive = the rest;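 further: spheroids exposed to compounds for seven days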
Would you mind answering with one of these outcomes? YES (active), NO (inactive)

Prompt: What did this assay record as the result for COc1cccc2c1C(=O)c1c(O)c3c(c(O)c1C2=O)CC(O)(C(=O)CO)CC3OC1CC(N)C(O)C(C)O1 (stereo not given) + Cc1[nH]c2ccc(F)cc2c1-c1nc2c3cccnc3c3ncccc3c2[nH]1 ?
Completion: NO

Prompt: What did this assay record as the result for O=C(c1cc(Cc2n[nH]c(=O)c3ccccc23)ccc1F)N1CCN(C(=O)C2CC2)CC1 + Cc1[nH]c2ccc(F)cc2c1-c1nc2c3cccnc3c3ncccc3c2[nH]1 ?
Completion: NO

Prompt: What did this assay record as the result for C=CC(=O)N1CCN(c2nc(=O)n(-c3c(C)ccnc3C(C)C)c3nc(-c4c(O)cccc4F)c(F)cc23)C(C)C1 (stereo not given) + Cc1cnc(CNC(=O)c2c(=O)c3ccc(N4CCCN(C)CC4)nc3n3c2sc2ccccc23)cn1 ?
Completion: NO

Prompt: What did this assay record as the result for O=C(c1cc(Cc2n[nH]c(=O)c3ccccc23)ccc1F)N1CCN(C(=O)C2CC2)CC1 + Cc1cnc(CNC(=O)c2c(=O)c3ccc(N4CCCN(C)CC4)nc3n3c2sc2ccccc23)cn1 ?
Completion: NO

====

tested on: K24384-001-R-PDC complex spheroids, viability; experiment: Anticancer human tumor K24384-001-R-PDC cell line growth inhibition [GQUAD]; conditions: second compound 3.16 µM; first compound 10 µM; active compounds read low;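 further: spheroids exposed to compounds for seven days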
// classify: if (viability, T/C < 30%) class 1 else class 0

compound="O=c1[nH]cc(F)c(=O)[nH]1 + CN(C)c1ccc(Nc2c3ccc(NC(=O)CCN4CCCC4)cc3nc3cc(NC(=O)CCN4CCCC4)ccc23)cc1" group="class 0"

Prompt: Consider the compound COc1cccc2c1C(=O)c1c(O)c3c(c(O)c1C2=O)CC(O)(C(=O)CO)CC3OC1CC(N)C(O)C(C)O1 (stereo not given) + Cc1[nH]c2ccc(F)cc2c1-c1nc2c3cccnc3c3ncccc3c2[nH]1 . Is its viability, T/C strictly less than 30%?
Completion: class 1

Prompt: Consider the compound Cc1cccc(N(C)C(=O)C2C(O)CCN2c2nc(C)cc(C(F)(F)F)c2C#N)c1 (stereo not given) + CN(C)c1ccc(Nc2c3ccc(NC(=O)CCN4CCCC4)cc3nc3cc(NC(=O)CCN4CCCC4)ccc23)cc1 . Is its viability, T/C strictly less than 30%?
Completion: class 0

Prompt: Consider the compound O=C(NO)c1cnc(N2CCN(S(=O)(=O)c3ccc4ccccc4c3)CC2)nc1 + CN(C)c1ccc(Nc2c3ccc(NC(=O)CCN4CCCC4)cc3nc3cc(NC(=O)CCN4CCCC4)ccc23)cc1 . Is its viability, T/C strictly less than 30%?
Completion: class 1
